Cited source: patent US20220401369A1

# assay overview: Solubility (24 h, 37° C.) in JP1 and JP2
# Type: physicochemical
# details: aqueous buffer, thermodynamic from solid, JP2 (pH 6.8), Table 2, read-out: Solubility JP2

- compound: "C[C@@H](NC(=O)c1ncnc(N)c1Cl)c1ncc(C(=O)Nc2cc(C(F)(F)F)c(Cl)cn2)s1 [Compound 1]"
  unit info: "µg/mL"
  solubility at 24 h: 1.1
